# experimental system: TIMP-3
# assay overview: Binding ELISA of LRP-1 peptides to TIMP-3 (Table 2; format and species not specified)
# Design: species or system human or mouse
# condition label: Assay 2; read-out: Binding ELISA EC50 (nm) Assay 2
pEC50: −log10 of the molar value.
measured quantity: pEC50

Query block: Retrieve pEC50 measured for LA20: LRP-1 peptide monomer, amino acids 2904-2943 (CNASSQFLCSSGRCVAEALLCNGQDDCGDSSDERGCHINE) and print it.
Result block: < 5.00

Data origin: patent US20140228540A1
